Each entry below lists one item and its recorded IC50 (nM), inhibition of GH release from primary cultures of rat pituitary cells value.
Target: somatostatin subtype 2 rat receptor (rat, UniProt P30680 1-369)
Sequence (P30680 whole entry): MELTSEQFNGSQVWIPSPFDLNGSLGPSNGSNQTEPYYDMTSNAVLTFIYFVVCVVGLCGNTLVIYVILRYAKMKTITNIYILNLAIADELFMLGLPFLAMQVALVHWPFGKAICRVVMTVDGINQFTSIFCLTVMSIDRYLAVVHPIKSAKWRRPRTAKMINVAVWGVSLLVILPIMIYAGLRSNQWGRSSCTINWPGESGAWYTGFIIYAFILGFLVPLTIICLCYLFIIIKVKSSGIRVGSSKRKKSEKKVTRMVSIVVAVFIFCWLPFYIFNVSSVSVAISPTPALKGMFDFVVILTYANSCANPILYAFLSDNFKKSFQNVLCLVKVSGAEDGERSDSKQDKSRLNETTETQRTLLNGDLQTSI
Assay Notes: cell-based or functional assay
Bridges are numbered along the chain shown (N, C = ends). Where no end group is shown, it is not given here. [ ]: non-standard residue; d: D form. MTXCOO‑CH2CO = methotrexate-acetyl; 4Pal = N[C@@H](Cc1ccncc1)C(=O)O
Enter your answer as a number in nM; do not include the unit.

Examples with answers:
## Input Look up IC50 (nM), inhibition of GH release from primary cultures of rat pituitary cells for this binder: [dS][dS][dS][dS][dS][4Pal][dY][dS]CF[dW]KTCT-NH2 (disulfide 9-14; N-terminus assumed; SMILES C[C@@H](O)[C@H](NC(=O)[C@@H]1CSSC[C@H](NC(=O)[C@@H](CO)NC(=O)[C@@H](Cc2ccc(O)cc2)NC(=O)[C@H](Cc2ccncc2)NC(=O)[C@@H](CO)NC(=O)[C@@H](CO)NC(=O)[C@@H](CO)NC(=O)[C@@H](CO)NC(=O)[C@H](N)CO)C(=O)N[C@@H](Cc2ccccc2)C(=O)N[C@H](Cc2c[nH]c3ccccc23)C(=O)N[C@@H](CCCCN)C(=O)N[C@@H]([C@@H](C)O)C(=O)N1)C(N)=O)
## Output 0.18

## Input // same read-out, input: mercaptoacetate-GG[dD][dS][dS][dS][dS][dS][4Pal][dY][dS]CF[dW]KTCT-NH2 (disulfide 12-17)
## Output 0.97

## Input // same read-out, input: [dS][dS][dS][dS][dS]Q[dY][dS]CF[dW]KTCT-NH2 (disulfide 9-14; N-terminus assumed; SMILES C[C@@H](O)[C@H](NC(=O)[C@@H]1CSSC[C@H](NC(=O)[C@@H](CO)NC(=O)[C@@H](Cc2ccc(O)cc2)NC(=O)[C@H](CCC(N)=O)NC(=O)[C@@H](CO)NC(=O)[C@@H](CO)NC(=O)[C@@H](CO)NC(=O)[C@@H](CO)NC(=O)[C@H](N)CO)C(=O)N[C@@H](Cc2ccccc2)C(=O)N[C@H](Cc2c[nH]c3ccccc23)C(=O)N[C@@H](CCCCN)C(=O)N[C@@H]([C@@H](C)O)C(=O)N1)C(N)=O) [D-Ser-D-Ser-D-Ser-D-Ser-D-Ser-L-Gln-D-Tyr-D-Ser-cyclo[L-Cys-L-Phe-D-Trp-L-Lys-L-Thr-L-Cys]-L-Thr-NH2]
## Output 0.45

## Input // same read-out, input: {MTXCOO‑CH2CO}-[dS][dS][dS][dS][dS]K[dY][dY]CF[dW]KTCT-NH2 (cysteine pairing not given here) [MTXCOO-CH2CO-(D-Ser)5-Lys-D-Tyr-D-Tyr-Cys-Phe-D-Trp-Lys-Thr-Cys-Thr-NH2]
## Output 0.16

## Input // same read-out, input: {3‑N,N‑dimethylaminobenzoyl}-[dS][dS][dS][dS][dS][dS][dS][dS][dS][dS][dS][dS][dS][dS][dS]K[dY][dY]CF[dW]KTCT-NH2 (disulfide 19-24)
## Output 0.27

Here is the next item to consider.
## Input Look up IC50 (nM), inhibition of GH release from primary cultures of rat pituitary cells for this binder: Succinate-[dS][dS][dS][dS][dS]S[dY][dS]CF[dW]KTCT-NH2 (disulfide 9-14)
## Output 5.6
